- system name: T1, Human CD3 on Human CD3+ Jurkat cells (human, UniProt P07766 23-207)
- T1 construct: whole, on cells; CD3 complex on cells; also called hCD3
- T1 sequence (P07766 23-207): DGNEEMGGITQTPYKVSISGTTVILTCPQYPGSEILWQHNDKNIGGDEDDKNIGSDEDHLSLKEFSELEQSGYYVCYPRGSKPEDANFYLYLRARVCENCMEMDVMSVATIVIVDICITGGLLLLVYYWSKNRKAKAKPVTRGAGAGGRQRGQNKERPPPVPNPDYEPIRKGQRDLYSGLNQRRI
- run description: cell binding hCD3, fold over background
Listing of entries alongside the reported Cell Binding hCD3 (FOB).
Numeric answer only, unit FOB assumed.

binder	Cell Binding hCD3 (FOB)
ADI-46365 (antibody, V domains shown, also called Ab49) VH: QVQLVQSGAEVKKPGASVKVSCKASGFNIKDYYMHWVRQAPGQRLEWIGWIDLENANTVYDAKFQGRVTITRDTSAGTAHMELSSLRSEDTAVYYCARDAYGRYFYDVWGQGTPVTVSS VL: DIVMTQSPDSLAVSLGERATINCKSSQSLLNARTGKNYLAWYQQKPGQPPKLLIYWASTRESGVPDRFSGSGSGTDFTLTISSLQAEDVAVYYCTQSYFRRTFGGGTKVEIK	36
ADI-46379 (antibody, V domains shown, also called Ab41) VH: QVQLVQSGAEVKKPGASVKVSCKASGFNIKDYYMHWVRQAPGQRLEWIGWIDLENANTVYDAKFQGRVTITRDTSASAAYMELSSLRSEDTAVYYCARDAYGRYFYDVWGQGTLVTVSS VL: DIVMTQSPDSLAVSLGERATINCKSSQSLLNARTGKNYLAWYQQKPGQPPKLLIYWASARESGVPDRFSGSGSGTDFTLTISSLQAEDVAVYYCTQSYFRRTFGGGTKVEIK	43
ADI-45959 (antibody, V domains shown, also called Ab13) VH: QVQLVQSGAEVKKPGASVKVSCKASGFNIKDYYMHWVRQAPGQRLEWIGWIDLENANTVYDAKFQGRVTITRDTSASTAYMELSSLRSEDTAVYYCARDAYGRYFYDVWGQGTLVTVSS VL: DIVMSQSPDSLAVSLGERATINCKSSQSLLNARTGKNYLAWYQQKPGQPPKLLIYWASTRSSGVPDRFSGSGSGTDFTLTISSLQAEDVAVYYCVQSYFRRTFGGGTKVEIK	19
ADI-46364 (antibody, V domains shown, also called Ab48) VH: QVQLVQSGAEVKKPGASVKVSCKASGFNIKDYYMHWVRQAPGQRLEWIGWIDLENANTVYDAKLQGRVTITRDTSASTAYMELSSLGSEDTAVYYCARDAYGRYFYDVWGQGTLVTVSS VL: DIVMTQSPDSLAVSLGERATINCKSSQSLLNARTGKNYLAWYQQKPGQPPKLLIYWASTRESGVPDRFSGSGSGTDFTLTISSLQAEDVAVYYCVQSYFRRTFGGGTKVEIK	33

Here is another binder to look at.
Task: Quick one: Cell Binding hCD3 (FOB) of ADI-45960 (antibody, V domains shown, also called Ab23) VH: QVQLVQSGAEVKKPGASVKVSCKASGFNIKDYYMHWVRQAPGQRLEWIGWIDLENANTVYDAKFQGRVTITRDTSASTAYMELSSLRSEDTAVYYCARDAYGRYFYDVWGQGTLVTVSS VL: DIVMTQSPDSLAVSLGERATINCKSSQSLLNARTGKNYLAWYQQKPGQPPKLLIYWASTRESGVPDRFSGSGSGTDFTLTISSLQAEDAAVYYCAQSYFRRTFGGGTKVEIK ?
Output: 63
